- Target under test: OX2R (Homo sapiens, UniProt O43614)
- Construct: expressed in transfected cells; host or cells: CHO (Chinese hamster ovary) cells constitutively expressing the OX2R gene and NFAT-luciferase (CHOOX2R)
- Protocol description: Evaluation of agonist activity against OX2R (CHOOX2R cells, Fura2AM fluorescence, FDSS3000)
- Format: cell-based
- Details: test compound 10 μM; CHOOX2R cells; relative to orexin-A as full agonist (100%)
Kindly state Response (10 μM (%)) for each of the entries shown.
Give just the number in %; leave the unit off.

Endpoint output: Response (10 μM (%)) of COCCN(C)C(=O)c1cccc(-c2ccc(OC)c(S(=O)(=O)Nc3cccc(NCCNC(=O)c4ccccc4OC)c3)c2)c1 [Example 77] . Value? 82

Endpoint output: Response (10 μM (%)) of COc1ccc(-c2cccc(C(=O)N(C)C)c2)cc1S(=O)(=O)Nc1cccc(NCCNC(=O)c2cccnc2Cl)c1 [Example 50] . Value? 76

Endpoint output: Response (10 μM (%)) of COc1ccccc1C(=O)NCCNc1cccc(NS(=O)(=O)c2cc(-c3cccc(N)c3)ccc2OC)c1 [Example 37] . Value? 163

Endpoint output: Response (10 μM (%)) of COc1ccc(-c2cccc(C(=O)N(C)C)c2)cc1S(=O)(=O)Nc1cccc(NCCNC(=O)c2cc(F)cc(F)c2)c1 [Example 54] . Value? 126

Endpoint output: Response (10 μM (%)) of COc1ccc(-c2cccc(C(=O)N(C)C)c2)cc1S(=O)(=O)Nc1cccc(NCCNC(=O)c2ccoc2C)c1 [Example 67] . Value? 76

---

- Target under test: OX2R (Homo sapiens, UniProt O43614)
- Construct: expressed in transfected cells; host or cells: CHO (Chinese hamster ovary) cells constitutively expressing the OX2R gene and NFAT-luciferase (CHOOX2R)
- Sequence (O43614 1-444): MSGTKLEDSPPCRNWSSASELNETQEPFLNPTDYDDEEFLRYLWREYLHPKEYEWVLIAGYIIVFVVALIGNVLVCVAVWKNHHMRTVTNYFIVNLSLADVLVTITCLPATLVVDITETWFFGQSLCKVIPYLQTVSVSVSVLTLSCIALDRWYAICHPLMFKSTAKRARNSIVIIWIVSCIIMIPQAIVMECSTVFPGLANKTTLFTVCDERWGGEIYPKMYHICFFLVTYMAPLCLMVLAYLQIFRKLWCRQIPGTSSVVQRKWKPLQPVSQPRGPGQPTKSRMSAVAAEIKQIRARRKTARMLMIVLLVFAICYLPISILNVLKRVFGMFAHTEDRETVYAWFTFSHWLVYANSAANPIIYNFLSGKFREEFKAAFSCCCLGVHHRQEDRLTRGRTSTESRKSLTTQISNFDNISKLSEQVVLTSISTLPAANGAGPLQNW
- Protocol description: Evaluation of agonist activity against OX2R (CHOOX2R cells, Fura2AM fluorescence, FDSS3000)
- Type: cell-based
- Details: test compound 1.0 μM; CHOOX2R cells; relative to orexin-A as full agonist (100%)
- Description: Evaluation of Agonist Activity Against OX2R NFAT-luciferase gene and OX2R gene were each constitutively expressed in CHO cell, which is a cell line derived from Chinese hamster ovary to establish a cell line (CHOOX2R). […] After washing, HEPES buffer (75 μL) was added, a test compound solution (25 μL) was added, and changes in the fluorescence intensity were measured by FDSS3000 (Hamamatsu Photonics K.K.). […]
Metric name: Response (1.0 μM (%))
Give just the number in %; leave the unit off.

Lookup: Response (1.0 μM (%)) / OX2R (Homo sapiens, UniProt O43614) / `COc1ccc(-c2cccc(C(=O)N(C)C)c2)cc1S(=O)(=O)Nc1cccc(NCCNC(=O)c2ncccc2Cl)c1` 9

Lookup: Response (1.0 μM (%)) / OX2R (Homo sapiens, UniProt O43614) / `COc1ccc(-c2cccc(C(=O)N(C)C)c2)cc1S(=O)(=O)Nc1cccc(NCCNC(=O)c2ccccc2Cl)c1` 103

Lookup: Response (1.0 μM (%)) / OX2R (Homo sapiens, UniProt O43614) / `COc1cccc(C(=O)NCCNc2cccc(NS(=O)(=O)c3cc(-c4cccc(C(=O)N5CCCC5)c4)ccc3OC)c2)c1` 89

Lookup: Response (1.0 μM (%)) / OX2R (Homo sapiens, UniProt O43614) / `COc1cccc(C(=O)NCCNc2cccc(NS(=O)(=O)c3cc(-c4cc(OC)ccc4F)ccc3OC)c2)c1` 68

Lookup: Response (1.0 μM (%)) / OX2R (Homo sapiens, UniProt O43614) / `COc1ccccc1C(=O)NCCNc1cccc(NS(=O)(=O)c2cc(-c3cccc(C(=O)N(C)C(C)(C)C)c3)ccc2OC)c1` 95

Lookup: Response (1.0 μM (%)) / OX2R (Homo sapiens, UniProt O43614) / `COc1ccc(-c2cccc(C(=O)N(C)C)c2)cc1S(=O)(=O)Nc1cccc(NCCNC(=O)c2sccc2Cl)c1` 92

Lookup: Response (1.0 μM (%)) / OX2R (Homo sapiens, UniProt O43614) / `COc1ccccc1C(=O)NCCNc1cccc(NS(=O)(=O)c2cc(-c3cccc(C(=O)NCC(F)(F)F)c3)ccc2OC)c1` 33

Lookup: Response (1.0 μM (%)) / OX2R (Homo sapiens, UniProt O43614) / `COc1ccccc1C(=O)NCCNc1cccc(NS(=O)(=O)c2cc(-c3cccc(C(=O)N4CCCCC4)c3)ccc2OC)c1` 91

Lookup: Response (1.0 μM (%)) / OX2R (Homo sapiens, UniProt O43614) / `COc1ccc(-c2cccc(C(=O)N3CCCC3)c2)cc1S(=O)(=O)Nc1cccc(NCCNC(=O)c2sccc2Cl)c1` 96

Lookup: Response (1.0 μM (%)) / OX2R (Homo sapiens, UniProt O43614) / `COc1ccc(-c2cccc(C(=O)N3CCCCC3)c2)cc1S(=O)(=O)Nc1cccc(NCCNC(=O)c2cccnc2OC)c1` 90

Lookup: Response (1.0 μM (%)) / OX2R (Homo sapiens, UniProt O43614) / `COc1ccc(-c2cccc(C(=O)N(C)C)c2)cc1S(=O)(=O)Nc1cccc(NCCNC(=O)c2cccc(Cl)n2)c1` 144

Lookup: Response (1.0 μM (%)) / OX2R (Homo sapiens, UniProt O43614) / `COc1ccc(-c2cccc(C(=O)N(C)C)c2)cc1S(=O)(=O)Nc1cccc(NCCNC(=O)c2sccc2C)c1` 43

Lookup: Response (1.0 μM (%)) / OX2R (Homo sapiens, UniProt O43614) / `COc1ccccc1C(=O)NCCNc1cccc(NS(=O)(=O)c2cc(-c3cccc(C(=O)N4CCC4)c3)ccc2OC)c1` 98

Lookup: Response (1.0 μM (%)) / OX2R (Homo sapiens, UniProt O43614) / `COc1ccc(-c2cccc(C(=O)N(C)C)c2)cc1S(=O)(=O)Nc1cccc(NCCNC(=O)c2ccccc2C#N)c1` 39

Lookup: Response (1.0 μM (%)) / OX2R (Homo sapiens, UniProt O43614) / `COc1ccccc1C(=O)NCCNc1cccc(NS(=O)(=O)c2cc(-c3cccc(C(=O)N(C)C)c3)ccc2OC)c1` 74

Lookup: Response (1.0 μM (%)) / OX2R (Homo sapiens, UniProt O43614) / `COCCN(C)C(=O)c1cccc(-c2ccc(OC)c(S(=O)(=O)Nc3cccc(NCCNC(=O)c4ccccc4OC)c3)c2)c1` 91

Lookup: Response (1.0 μM (%)) / OX2R (Homo sapiens, UniProt O43614) / `COc1ccc(-c2cccc(C(=O)N(C)C)c2)cc1S(=O)(=O)Nc1cccc(NCCNC(=O)c2c(F)cccc2F)c1` 80

Lookup: Response (1.0 μM (%)) / OX2R (Homo sapiens, UniProt O43614) / `COc1cccc(C(=O)NCCNc2cccc(NS(=O)(=O)c3cc(-c4cccc(C(=O)N5CCC5)c4)ccc3OC)c2)n1` 10

Lookup: Response (1.0 μM (%)) / OX2R (Homo sapiens, UniProt O43614) / `COc1ccc(F)c(-c2ccc(OC)c(S(=O)(=O)Nc3cccc(NCCNC(=O)c4ccccc4OC)c3)c2)c1` 64

Lookup: Response (1.0 μM (%)) / OX2R (Homo sapiens, UniProt O43614) / `COc1cc(OC)cc(-c2ccc(OC)c(S(=O)(=O)Nc3cccc(NCCNC(=O)c4ccccc4OC)c3)c2)c1` 11

---

- Target under test: OX2R (Homo sapiens, UniProt O43614)
- Construct: expressed in transfected cells; host or cells: CHO (Chinese hamster ovary) cells constitutively expressing the OX2R gene and NFAT-luciferase (CHOOX2R)
- Protocol description: Evaluation of agonist activity against OX2R (CHOOX2R cells, Fura2AM fluorescence, FDSS3000)
- Format: cell-based
- Details: test compound 0.1 μM; relative to orexin-A as full agonist (100%); CHOOX2R cells
Metric name: Response (0.1 μM (%))

Endpoint output: Response (0.1 μM (%)) of COc1ccccc1C(=O)NCCNc1cccc(NS(=O)(=O)c2cc(-c3cc(Cl)cc(Cl)c3)ccc2OC)c1 [Example 27] . Value? <5%

Endpoint output: Response (0.1 μM (%)) of COc1ccccc1C(=O)NCCNc1cccc(NS(=O)(=O)c2cc(-c3cc(Cl)ccc3Cl)ccc2OC)c1 [Example 25] . Value? <5%

Endpoint output: Response (0.1 μM (%)) of COc1ccccc1C(=O)NCCNc1cccc(NS(=O)(=O)c2cc(-c3cc(F)ccc3F)ccc2OC)c1 [Example 19] . Value? <5%

Endpoint output: Response (0.1 μM (%)) of COc1ccccc1C(=O)NCCNc1cccc(NS(=O)(=O)c2cc(-c3ccccc3Cl)ccc2OC)c1 [Example 10] . Value? <5%

Endpoint output: Response (0.1 μM (%)) of COc1cccc(C(=O)NCCNc2cccc(NS(=O)(=O)c3cc(-c4ccccc4O)ccc3OC)c2)c1 [Example 22] . Value? <5%

Endpoint output: Response (0.1 μM (%)) of COc1ccccc1C(=O)NCCNc1cccc(NS(=O)(=O)c2cc(-c3cc(F)ccc3Cl)ccc2OC)c1 [Example 32] . Value? <5%

Endpoint output: Response (0.1 μM (%)) of COc1ccccc1C(=O)NCCNc1cccc(NS(=O)(=O)c2cc(-c3ccccc3F)ccc2OC)c1 [Example 1] . Value? <5%

Endpoint output: Response (0.1 μM (%)) of COc1cccc(C(=O)NCCNc2cccc(NS(=O)(=O)c3cc(-c4cc(F)ccc4F)ccc3OC)c2)c1 [Example 20] . Value? <5%

Endpoint output: Response (0.1 μM (%)) of COc1ccccc1C(=O)NCCNc1cccc(NS(=O)(=O)c2cc(-c3ccccc3OC)ccc2OC)c1 [Example 12] . Value? <5%

Provenance of the data: patent US9815787B2
